B1: RHOBTB3 (parent)
chain: GGADIIVIKYNVNDKFSFHEVKDN

- Variants of: B1
- protocol notes: protein stability index of a GFP-peptide fusion (GPS, HEK-293T) (PSI 1-6); higher = more stable;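 further: lentivirally expressed fusions sorted by FACS into six bins by GFP to DsRed ratio, PSI derived from sequencing read proportions per bin multiplied by bin number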
- recorded conditions: c terminus: a fixed tail appended
Label rule, in plain words: protein stability index of 3 and up is Y, under 3 is N.

[
  {
    "changes": "Y10L",
    "label class": "Y"
  },
  {
    "changes": "F16A",
    "label class": "N"
  },
  {
    "changes": "F16C",
    "label class": "N"
  },
  {
    "changes": "V21L",
    "label class": "N"
  },
  {
    "changes": "F18W",
    "label class": "N"
  },
  {
    "changes": "I8W",
    "label class": "N"
  },
  {
    "changes": "V21P",
    "label class": "N"
  },
  {
    "changes": "S17H",
    "label class": "N"
  },
  {
    "changes": "V7F",
    "label class": "Y"
  },
  {
    "changes": "D23M",
    "label class": "N"
  },
  {
    "changes": "V21S",
    "label class": "N"
  },
  {
    "changes": "I6P",
    "label class": "Y"
  },
  {
    "changes": "K22S",
    "label class": "N"
  },
  {
    "changes": "E20P",
    "label class": "N"
  },
  {
    "changes": "H19C",
    "label class": "Y"
  },
  {
    "changes": "I8F",
    "label class": "N"
  },
  {
    "changes": "V12M",
    "label class": "N"
  },
  {
    "changes": "F18P",
    "label class": "N"
  },
  {
    "changes": "I5V",
    "label class": "N"
  },
  {
    "changes": "N24R",
    "label class": "N"
  }
]
